Recorded measurements of Ki, one per entry
target: Bovine chymotrypsin (bovine, UniProt P00766 1-13; P00766 16-146; P00766 149-245); assay: enzyme inhibition, bovine chymotrypsin 5 nM
Where no end group is shown, it is not given here.
Field format: number, assumed nM, no unit text.

Data point: synthetic placental bikunin (7-64), first preparation of Example 2 (other, also called placental bikunin fragment (7-64); KID1) IHDFCLVSKVVGRCRASMPRWWYNVTDGSCQLFVYGGCDGNSNNYLTKEECLKKCATV ; Ki = 0.6

Documented Ki of synthetic placental bikunin (102-159) (other, disulfide (positions not given here), also called KID2) YEEYCTANAVTGPCRASFPRWYFDVERNSCNNFIYGGCRGNKNSYRSEEACMLRCFRQ : 0.2
